# SYSTEM_NAME: NADPH oxidase 4 (Homo sapiens) (UniProt Q9NPH5)
# Sequence (Q9NPH5 whole entry, looked up): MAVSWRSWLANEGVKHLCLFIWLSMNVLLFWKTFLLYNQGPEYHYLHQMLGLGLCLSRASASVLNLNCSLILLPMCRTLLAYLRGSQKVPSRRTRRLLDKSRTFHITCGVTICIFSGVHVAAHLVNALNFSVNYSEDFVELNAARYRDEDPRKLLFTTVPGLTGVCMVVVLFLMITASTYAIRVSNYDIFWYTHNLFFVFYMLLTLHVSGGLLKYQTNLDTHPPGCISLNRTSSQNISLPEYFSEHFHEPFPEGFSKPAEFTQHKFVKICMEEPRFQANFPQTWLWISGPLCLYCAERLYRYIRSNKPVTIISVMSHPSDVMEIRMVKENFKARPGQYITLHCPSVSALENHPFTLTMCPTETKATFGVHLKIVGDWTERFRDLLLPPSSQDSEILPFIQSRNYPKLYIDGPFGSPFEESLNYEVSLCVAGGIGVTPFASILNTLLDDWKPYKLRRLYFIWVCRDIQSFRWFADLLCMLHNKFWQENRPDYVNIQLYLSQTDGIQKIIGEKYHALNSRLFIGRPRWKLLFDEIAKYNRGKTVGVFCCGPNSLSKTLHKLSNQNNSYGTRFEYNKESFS
# ASSAY_PROTOCOL: NOX4-dependent H2O2 signal modulators, primary screen, NOX inhibitor project, cell-based, HEK293-NOX4, tetracycline-induced, Amplex Red fluorescence (AID 1160)
# RECORDED_CONDITIONS: 45 min, higher = more signal, called active from +8 up or from −8 down
The source made the active and inactive calls.
ENDPOINT_NAME: z-score

- COMPOUND: "O=C1C2=CC[C@H]3C(=O)N(C4CCCCC4)C(=O)[C@H]3[C@H]2[C@H](O)[C@@H]2O[C@H]12"
  SYSTEM_NAME: "NADPH oxidase 4 (Homo sapiens) (UniProt Q9NPH5)"
  RESULT: "0.3 (inactive)"
- COMPOUND: "COc1ccc(COC(=O)NN=C2C[C@@H](O)[C@@H](O)[C@@H]3[C@@H]4C(=O)N(C[C@@H]5CCCO5)C(=O)[C@@H]4CC[C@@H]23)cc1"
  SYSTEM_NAME: "NADPH oxidase 4 (Homo sapiens) (UniProt Q9NPH5)"
  RESULT: "0.995 (inactive)"
- COMPOUND: "CO[C@H]1COC(=O)[C@H](CCSC)NC(=O)CC=C[C@@H](C)[C@H](OC)COC(=O)[C@@H](OCc2ccccc2)C=C[C@@H]1C"
  SYSTEM_NAME: "NADPH oxidase 4 (Homo sapiens) (UniProt Q9NPH5)"
  RESULT: "0.25 (inactive)"
- COMPOUND: "COC(=O)[C@H](C)NC(=O)CCC1CC(OC(=O)NCCc2ccc(F)cc2)CC2(CCCC(COC(=O)NCCOc3ccccc3)O2)O1 (some centres not stated)"
  SYSTEM_NAME: "NADPH oxidase 4 (Homo sapiens) (UniProt Q9NPH5)"
  RESULT: "0.622 (inactive)"
- COMPOUND: "CCOC(=O)[C@H](CC(C)C)NC(=O)CCC1CC(OC(=O)NCCc2ccc(F)cc2)CC2(CCCC(COC(=O)NCCOC)O2)O1 (some centres not stated)"
  SYSTEM_NAME: "NADPH oxidase 4 (Homo sapiens) (UniProt Q9NPH5)"
  RESULT: "0.998 (inactive)"
- COMPOUND: "CO[C@@H]1C=CCC(=O)N[C@@H](C)C(=O)OC[C@@H](NS(=O)(=O)c2ccc(C)cc2)[C@H](C)C=CCC(=O)OC[C@H]1C"
  SYSTEM_NAME: "NADPH oxidase 4 (Homo sapiens) (UniProt Q9NPH5)"
  RESULT: "0.732 (inactive)"
- COMPOUND: "C[C@H]1CC[C@H]2C(=O)O[C@H](CO)CN2[C@@H]1c1ccc(Br)cc1"
  SYSTEM_NAME: "NADPH oxidase 4 (Homo sapiens) (UniProt Q9NPH5)"
  RESULT: "-0.191 (inactive)"
